Where do the numbers come from? From patent US20070213359A1.

Biological target: Ghrelin receptor (Homo sapiens, UniProt Q92847)
Sequence (Q92847 whole entry): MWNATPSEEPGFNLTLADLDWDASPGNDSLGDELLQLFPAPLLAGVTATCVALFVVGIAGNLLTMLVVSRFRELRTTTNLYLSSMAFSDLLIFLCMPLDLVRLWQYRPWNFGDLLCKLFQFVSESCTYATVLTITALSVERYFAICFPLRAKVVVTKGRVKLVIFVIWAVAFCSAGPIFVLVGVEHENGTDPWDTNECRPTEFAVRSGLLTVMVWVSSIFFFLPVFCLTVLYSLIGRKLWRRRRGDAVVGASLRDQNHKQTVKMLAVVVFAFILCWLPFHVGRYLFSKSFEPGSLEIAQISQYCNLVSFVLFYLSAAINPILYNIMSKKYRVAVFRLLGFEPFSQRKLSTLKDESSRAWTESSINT
Experiment: Receptor Selection and Amplification Technology (R-SAT) assay
Assay type: cell-based
Design: expressed in transfected cells; host or cells: NIH3T3
Details: percent inhibition at saturating ligand, normalized to reference ligand Substance P analog = 100%; read-out: RSAT Eff(%)
# Emax values compiled below
parameter: Emax (%)

>  <compound>
CC(=O)c1cn(CCCN2C3CCC2CC(OCC2CC2)C3)c2cc(Br)ccc12 (stereo not shown)

>  <tgt>
Ghrelin receptor (Homo sapiens, UniProt Q92847)

>  <unit_info>
%

>  <measurement>
130

$$$$
>  <compound>
COc1ccccc1C1CCN(CCCn2cc(C(C)=O)c3cccc(Cl)c32)CC1

>  <tgt>
Ghrelin receptor (Homo sapiens, UniProt Q92847)

>  <unit_info>
%

>  <measurement>
103

$$$$
>  <compound>
CC(=O)c1cn(CCCN2C3CCC2CC(Oc2ccc(Cl)cc2)C3)c2cc(Br)ccc12 (stereo not shown)

>  <tgt>
Ghrelin receptor (Homo sapiens, UniProt Q92847)

>  <unit_info>
%

>  <measurement>
74

$$$$
>  <compound>
O=C(c1cn(CCCN2CCC(c3nc(-c4ccncc4)no3)CC2)c2ncccc12)C(F)(F)F

>  <tgt>
Ghrelin receptor (Homo sapiens, UniProt Q92847)

>  <unit_info>
%

>  <measurement>
31

$$$$
>  <compound>
CCCCC(=O)c1cn(CCCN2CCN(C(C)c3ccccc3)CC2)c2ccc(OC)cc12 (stereo not shown)

>  <tgt>
Ghrelin receptor (Homo sapiens, UniProt Q92847)

>  <unit_info>
%

>  <measurement>
81

$$$$
>  <compound>
CCCCC(=O)c1cn(CCCN2C3CCC2CC(Oc2ccc(Cl)cc2)C3)c2ccc(OC)cc12 (stereo not shown)

>  <tgt>
Ghrelin receptor (Homo sapiens, UniProt Q92847)

>  <unit_info>
%

>  <measurement>
110

$$$$
>  <compound>
CC(=O)c1cn(CC(C)CN2CCC(Oc3ccc(F)cc3)CC2)c2ccccc12 (stereo not shown)

>  <tgt>
Ghrelin receptor (Homo sapiens, UniProt Q92847)

>  <unit_info>
%

>  <measurement>
98

$$$$
>  <compound>
CC(=O)c1c(C)n(CCCN2C3CCC2CC(CC(=O)c2ccc(Cl)cc2)C3)c2c(Br)cccc12 (stereo not shown)

>  <tgt>
Ghrelin receptor (Homo sapiens, UniProt Q92847)

>  <unit_info>
%

>  <measurement>
64

$$$$
>  <compound>
COc1cccc2c(C#N)cn(CCCN3CCN(CCOc4ccc(Cl)c5ccccc45)CC3)c12

>  <tgt>
Ghrelin receptor (Homo sapiens, UniProt Q92847)

>  <unit_info>
%

>  <measurement>
21

$$$$
>  <compound>
CC(=O)c1cn(CCCCN2CCC(Cc3ccccc3)CC2)c2ccccc12

>  <tgt>
Ghrelin receptor (Homo sapiens, UniProt Q92847)

>  <unit_info>
%

>  <measurement>
86

$$$$

----------
Biological target: Ghrelin receptor (Homo sapiens)
Assay: Receptor Selection and Amplification Technology (R-SAT) assay
Format: cell-based
Design: expressed in transfected cells; host or cells: NIH3T3
Settings: percent inhibition at saturating ligand, normalized to reference ligand Substance P analog = 100%; read-out: RSAT Eff(%)
# Emax annotations
parameter: Emax (%)

>  <smiles_input>
COc1cccc2c(C(C)=O)cn(CCCN3CCN(c4ccccc4Cl)CC3)c12

>  <tgt>
Ghrelin receptor (Homo sapiens)

>  <measurement>
108

$$$$
>  <smiles_input>
CCCOC1CCN(CCCn2cc(C(C)=O)c3ccc(Br)cc32)CC1

>  <tgt>
Ghrelin receptor (Homo sapiens)

>  <measurement>
107

$$$$
>  <smiles_input>
COc1cccc2c(C(C)=O)cn(CCCN3CCN(c4c(C)cccc4C)CC3)c12

>  <tgt>
Ghrelin receptor (Homo sapiens)

>  <measurement>
107

$$$$
>  <smiles_input>
CC(=O)c1cn(CCCN2CCC(Oc3ccc(F)cc3)CC2)c2c(C)cccc12

>  <tgt>
Ghrelin receptor (Homo sapiens)

>  <measurement>
72

$$$$
>  <smiles_input>
CCCCC1CCN(CCCn2cc(C(C)=O)c3cccc(Br)c32)CC1

>  <tgt>
Ghrelin receptor (Homo sapiens)

>  <measurement>
87

$$$$
